From: patent US11084826B2

Examples of molecules with documented melting point follow.
Quick note: give the figure in °C, leave out the unit.

Here is how some molecules turned out for melting point.
molecule="CCc1cc(C(=O)N2CCCCCC2C)nc2cc(-c3ccc(C(=O)NNCC4CC4)cc3F)nn12 (stereo not shown)" units_symbol=°C observed_result=140
molecule="CC1c2ccsc2CCN1C(=O)c1cc(C2CC2)n2nc(-c3cccc(/C=C/C(=O)O)c3F)cc2n1 (stereo not shown)" units_symbol=°C observed_result=265.43
molecule="CCc1cc(C(=O)N2CCCCC[C@H]2C)nc2cc(-c3ccc(-c4ncc(C(=O)O)s4)cc3F)nn12 (racemic)" units_symbol=°C observed_result=177.53

Next molecule, please.
**Q:** // returns reported melting point for input CCc1cc(C(=O)N2CCCCCC2C)nc2cc(-c3ccc4c(c3)CCN4C)nn12 (stereo not shown)
**A:** 155
